# STUDY SYSTEM: Sphingosine kinase 2 (Homo sapiens)
# Sequence (whole entry): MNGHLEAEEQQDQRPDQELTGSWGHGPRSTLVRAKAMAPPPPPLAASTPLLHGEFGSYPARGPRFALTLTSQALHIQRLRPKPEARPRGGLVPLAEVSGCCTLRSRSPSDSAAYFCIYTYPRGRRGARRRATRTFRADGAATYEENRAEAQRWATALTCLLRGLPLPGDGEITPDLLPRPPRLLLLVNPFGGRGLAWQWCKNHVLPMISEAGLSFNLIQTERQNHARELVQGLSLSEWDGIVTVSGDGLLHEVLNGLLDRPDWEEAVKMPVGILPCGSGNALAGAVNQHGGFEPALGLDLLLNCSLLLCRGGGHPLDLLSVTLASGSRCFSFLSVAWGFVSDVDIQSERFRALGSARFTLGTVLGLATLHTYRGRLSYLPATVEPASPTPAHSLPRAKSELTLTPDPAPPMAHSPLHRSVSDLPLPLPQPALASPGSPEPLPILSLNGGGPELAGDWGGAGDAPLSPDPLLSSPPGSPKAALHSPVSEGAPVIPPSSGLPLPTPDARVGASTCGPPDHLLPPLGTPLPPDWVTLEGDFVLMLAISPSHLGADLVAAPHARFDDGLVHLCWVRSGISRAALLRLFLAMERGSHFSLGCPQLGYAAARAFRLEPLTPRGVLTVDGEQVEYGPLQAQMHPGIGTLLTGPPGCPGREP
# TEST PARAMETERS: at 1 µM
# Description: GSK_PKIS: SPHK2 mean inhibition at 1 uM [Nanosyn]
RESULT TYPE: inhibition (%)
Numbers only here, please. The scale is %.

Use these answered entries as a reference point.
STRUCTURE | STUDY SYSTEM | QUANTITY UNIT | REPORTED
c1ccc(-c2n[nH]cc2-c2ccnc(-c3ccc(OCCn4ccnc4)cc3)c2)nc1 | Sphingosine kinase 2 (Homo sapiens) | % | 0.04
c1cnn2ncc(-c3ccnc(NCCCN4CCOCC4)n3)c2c1 | Sphingosine kinase 2 (Homo sapiens) | % | 0

In the following, a different compound is considered.
In: Please give the measured inhibition for this compound: NS(=O)(=O)c1cccc(N/C=C2\C(=O)Nc3ccccc32)c1
Out: 0.83

----------
# STUDY SYSTEM: Tyrosine-protein kinase ABL1 (Homo sapiens) (UniProt P00519)
# Sequence (P00519 whole entry): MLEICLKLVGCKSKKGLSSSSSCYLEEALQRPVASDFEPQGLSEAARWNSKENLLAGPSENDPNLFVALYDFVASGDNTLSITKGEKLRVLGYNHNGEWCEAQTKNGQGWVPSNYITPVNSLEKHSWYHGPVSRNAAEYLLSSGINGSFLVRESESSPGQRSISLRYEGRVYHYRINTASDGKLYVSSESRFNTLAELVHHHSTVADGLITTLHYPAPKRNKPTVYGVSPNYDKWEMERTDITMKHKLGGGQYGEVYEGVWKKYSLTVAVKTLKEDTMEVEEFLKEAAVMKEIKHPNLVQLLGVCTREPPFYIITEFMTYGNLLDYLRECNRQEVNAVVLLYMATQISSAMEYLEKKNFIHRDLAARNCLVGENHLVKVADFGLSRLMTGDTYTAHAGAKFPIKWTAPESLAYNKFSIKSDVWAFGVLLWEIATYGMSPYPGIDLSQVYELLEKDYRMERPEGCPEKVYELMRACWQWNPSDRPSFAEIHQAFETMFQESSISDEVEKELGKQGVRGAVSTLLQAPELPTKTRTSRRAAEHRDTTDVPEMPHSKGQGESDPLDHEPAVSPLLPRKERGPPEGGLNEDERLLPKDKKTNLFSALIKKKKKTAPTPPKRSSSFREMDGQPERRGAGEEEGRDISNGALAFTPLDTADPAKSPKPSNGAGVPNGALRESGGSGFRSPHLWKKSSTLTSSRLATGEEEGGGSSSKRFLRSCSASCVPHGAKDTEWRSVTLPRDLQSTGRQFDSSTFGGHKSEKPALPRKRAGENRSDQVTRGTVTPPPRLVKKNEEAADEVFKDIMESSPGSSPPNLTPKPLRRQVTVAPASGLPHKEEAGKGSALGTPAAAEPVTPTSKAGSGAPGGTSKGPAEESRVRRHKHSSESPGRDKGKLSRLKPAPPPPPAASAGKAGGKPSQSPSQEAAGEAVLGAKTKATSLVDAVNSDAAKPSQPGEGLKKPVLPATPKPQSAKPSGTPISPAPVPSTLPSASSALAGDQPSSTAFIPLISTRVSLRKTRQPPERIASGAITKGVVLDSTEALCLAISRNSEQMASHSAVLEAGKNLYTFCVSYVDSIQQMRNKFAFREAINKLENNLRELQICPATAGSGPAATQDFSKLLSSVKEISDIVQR
# TEST PARAMETERS: at 0.1 µM
# Description: GSK_PKIS: ABL1 mean inhibition at 0.1 uM [Nanosyn]
In this section we review reported inhibition values for a set of compounds.
Numbers only here, please. The scale is %.

Use these answered entries as a reference point.
STRUCTURE | QUANTITY UNIT | inhibition
FC(F)(F)CNc1nccc(-c2cnn3ncccc23)n1 | % | 1.87
c1cnn2ncc(-c3ccnc(NCCCN4CCOCC4)n3)c2c1 | % | 2.22

In: Please give the measured inhibition for this compound: N#Cc1cccc(Nc2ncc(-c3ccccc3)o2)c1
Out: 3.9

----------
In this section we review reported inhibition values for a set of molecules.
# STUDY SYSTEM: Angiopoietin-1 receptor (Homo sapiens)
# TEST PARAMETERS: at 0.1 µM
# Description: GSK_PKIS: TIE2 mean inhibition at 0.1 uM [Nanosyn]
Numbers only here, please. The scale is %.

Use these answered entries as a reference point.
STRUCTURE | STUDY SYSTEM | inhibition [%]
CS(=O)(=O)Nc1ccc(-c2ccc3c(NC(=O)C4CC4)n[nH]c3c2)cc1 | Angiopoietin-1 receptor (Homo sapiens) | 2.18
Cc1nnc(-c2cccc(-c3ccc(C(=O)NCC4CC4)cc3)c2)o1 | Angiopoietin-1 receptor (Homo sapiens) | 2.51
Cc1cc(O)cc(C)c1/C=C/c1cncc(C(N)=O)c1 | Angiopoietin-1 receptor (Homo sapiens) | 2.45

In: Please give the measured inhibition for this molecule: c1ccc(-c2n[nH]cc2-c2ccnc(-c3ccc(OCCn4ccnc4)cc3)c2)nc1
Out: 0.28

In: Please give the measured inhibition for this molecule: NS(=O)(=O)c1cccc(N/C=C2\C(=O)Nc3ccccc32)c1
Out: 4.12

----------
# STUDY SYSTEM: Fibroblast growth factor receptor 4 (Homo sapiens);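 further: reported figure is the averaged percent inhibition of FGFR4, from the GSK PKIS kinase screening panel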
# TEST PARAMETERS: at 1 µM
In this section we review reported inhibition values for a set of molecules.
Numbers only here, please. The scale is %.

STRUCTURE | REPORTED
CCn1c(-c2nonc2N)nc2cncc(C(=O)NCCNC)c21 | 1.09

In: Please give the measured inhibition for this molecule: CN(C)CCNC(=O)Nc1ccc(N(C)c2ccnc(Nc3ccc(CS(C)(=O)=O)cc3)n2)cc1
Out: 2.84

In: Please give the measured inhibition for this molecule: c1ccc(-c2n[nH]cc2-c2ccnc(-c3ccc(OCCn4ccnc4)cc3)c2)nc1
Out: 4.5

In: Please give the measured inhibition for this molecule: COc1cc(N2CCN(C(C)C)CC2)ccc1Nc1nc(Nc2cccc(F)c2C(=O)O)c2cc[nH]c2n1
Out: 3.72

In: Please give the measured inhibition for this molecule: CN(c1ccc(NC(=O)NCCN2CCOCC2)cc1)c1ccnc(Nc2ccc(CS(C)(=O)=O)cc2)n1
Out: 1.61

In: Please give the measured inhibition for this molecule: O=C(O[C@H]1CN[C@H](C#Cc2cc3ncnc(Nc4ccc5c(ccn5Cc5cc(F)ccc5F)c4)c3s2)C1)N1CCOCC1
Out: 1.82

----------
In this section we review reported inhibition values for a set of compounds.
# STUDY SYSTEM: Protein kinase C theta type (Homo sapiens) (UniProt Q04759);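 further: reported figure is the mean percent inhibition of PKC-theta, from the GSK PKIS screen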
# Sequence (Q04759 whole entry, looked up): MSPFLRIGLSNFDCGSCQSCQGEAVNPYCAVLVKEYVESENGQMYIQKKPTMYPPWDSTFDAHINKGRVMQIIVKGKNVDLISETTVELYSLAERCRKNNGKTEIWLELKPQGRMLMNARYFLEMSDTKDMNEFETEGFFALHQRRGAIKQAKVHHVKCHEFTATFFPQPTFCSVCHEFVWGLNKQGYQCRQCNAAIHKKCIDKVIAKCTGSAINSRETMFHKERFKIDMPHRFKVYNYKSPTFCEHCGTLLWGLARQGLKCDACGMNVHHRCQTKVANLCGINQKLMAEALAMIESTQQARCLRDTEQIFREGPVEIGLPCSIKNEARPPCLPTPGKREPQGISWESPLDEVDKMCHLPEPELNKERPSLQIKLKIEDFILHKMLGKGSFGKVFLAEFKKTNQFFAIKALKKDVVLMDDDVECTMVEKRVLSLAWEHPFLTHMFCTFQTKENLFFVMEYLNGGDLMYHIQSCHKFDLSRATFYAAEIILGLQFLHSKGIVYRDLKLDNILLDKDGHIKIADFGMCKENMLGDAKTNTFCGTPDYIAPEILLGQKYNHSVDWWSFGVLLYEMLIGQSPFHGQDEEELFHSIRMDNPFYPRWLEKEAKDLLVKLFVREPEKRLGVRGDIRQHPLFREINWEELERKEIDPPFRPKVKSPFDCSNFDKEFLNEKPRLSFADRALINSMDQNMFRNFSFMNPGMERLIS
# TEST PARAMETERS: at 0.1 µM
Numbers only here, please. The scale is %.

Use these answered entries as a reference point.
COMPOUND | QUANTITY UNIT | inhibition
CCOc1ccc2c(-c3ccnc(Nc4cc(OC)cc(C(F)(F)F)c4)n3)cnn2n1 | % | 0.28
Fc1ccc(Nc2nccc(-c3c(-c4ccc(C(F)(F)F)cc4)nn4ncccc34)n2)cc1F | % | 1.71
CC1=C(C(=O)Nc2ccc3[nH]ncc3c2)C(c2ccc(F)cc2)N=C(c2ccc(C(F)(F)F)nc2)N1 (configuration not stated) | % | 1.3
c1cnn2ncc(-c3ccnc(NCCCN4CCOCC4)n3)c2c1 | % | 2.07
CCCNc1cccc(-n2ncc3c(N/N=C/c4ccncc4)ncnc32)c1 | % | 1.36
CN1CCC(n2cnc(-c3ccc(F)cc3)c2-c2ccnc(NCCO)n2)CC1 | % | 3.59

In: Please give the measured inhibition for this compound: FC(F)(F)CNc1nccc(-c2cnn3ncccc23)n1
Out: 1.1

----------
In this section we review reported inhibition values for a set of compounds.
# STUDY SYSTEM: Rhodopsin kinase GRK7 (Homo sapiens);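 further: reported figures are mean percent inhibition of GRK7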
# TEST PARAMETERS: at 0.1 µM
Numbers only here, please. The scale is %.

Use these answered entries as a reference point.
COMPOUND | inhibition, %
Cc1ccc(-c2cc3c(NC(=O)C4CC4)ncnc3o2)cc1 | 4
c1ccc(-c2n[nH]cc2-c2ccnc(-c3ccc(OCCn4ccnc4)cc3)c2)nc1 | -0.12
O=C1Nc2ccccc2/C1=C1\CCc2cc(O)ccc21 | 3.45
CNC(=O)c1ncccc1Nc1nc(Nc2cc3c(cc2OC)CCCN3C(=O)CN(C)C)nc2[nH]ccc12 | 16.9
O=C(Nc1n[nH]c2nnc(-c3cccnc3)cc12)C1CC1 | 2.31

In: Please give the measured inhibition for this compound: COc1cc(N2CCN(C(C)C)CC2)ccc1Nc1nc(Nc2cccc(F)c2C(=O)O)c2cc[nH]c2n1
Out: 3.79

In: Please give the measured inhibition for this compound: CCOc1ccc2c(-c3ccnc(Nc4cc(OC)cc(C(F)(F)F)c4)n3)cnn2n1
Out: -0.23

In: Please give the measured inhibition for this compound: O=C(O[C@H]1CN[C@H](C#Cc2cc3ncnc(Nc4ccc5c(ccn5Cc5cc(F)ccc5F)c4)c3s2)C1)N1CCOCC1
Out: 3.33

In: Please give the measured inhibition for this compound: CN(c1ccc(NC(=O)NCCN2CCOCC2)cc1)c1ccnc(Nc2ccc(CS(C)(=O)=O)cc2)n1
Out: 3.45

In: Please give the measured inhibition for this compound: CC1=C(C(=O)Nc2ccc3[nH]ncc3c2)C(c2ccc(F)cc2)N=C(c2ccc(C(F)(F)F)nc2)N1 (stereo not given)
Out: 0.19

----------
# STUDY SYSTEM: Ribosomal protein S6 kinase beta-1 (Homo sapiens) (UniProt P23443);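 further: reported value is the mean inhibition of p70S6K1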
# Sequence (P23443 whole entry, looked up): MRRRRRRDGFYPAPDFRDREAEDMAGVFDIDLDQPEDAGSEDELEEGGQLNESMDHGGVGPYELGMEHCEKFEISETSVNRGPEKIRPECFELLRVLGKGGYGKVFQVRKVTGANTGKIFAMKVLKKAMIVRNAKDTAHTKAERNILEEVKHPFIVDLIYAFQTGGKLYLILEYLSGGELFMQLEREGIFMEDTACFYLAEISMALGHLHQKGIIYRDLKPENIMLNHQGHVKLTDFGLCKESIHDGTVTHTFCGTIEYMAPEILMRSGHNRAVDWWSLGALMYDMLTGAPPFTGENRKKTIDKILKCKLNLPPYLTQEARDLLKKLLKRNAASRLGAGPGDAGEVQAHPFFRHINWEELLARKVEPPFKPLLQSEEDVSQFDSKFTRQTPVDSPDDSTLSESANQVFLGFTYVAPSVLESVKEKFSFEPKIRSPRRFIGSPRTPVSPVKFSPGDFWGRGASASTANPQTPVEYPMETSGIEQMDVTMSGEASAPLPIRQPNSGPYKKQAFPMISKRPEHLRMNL
# TEST PARAMETERS: at 0.1 µM
RESULT TYPE: inhibition (%)
Numbers only here, please. The scale is %.

Use these answered entries as a reference point.
STRUCTURE | REPORTED
CS(=O)(=O)CCNCc1ccc(-c2ccc3ncnc(Nc4ccc(OCc5ccccc5)cc4)c3c2)o1 | 1.52
CN(C)CCNC(=O)Nc1ccc(N(C)c2ccnc(Nc3ccc(CS(C)(=O)=O)cc3)n2)cc1 | 1.72
COC(=O)Nc1nc2cc(Oc3ccc(NC(=O)Nc4ccccc4)cc3)ccc2[nH]1 | 2.09

In the following, a different molecule is considered.
In: Please give the measured inhibition for this molecule: COc1cc(N2CCN(C(C)C)CC2)ccc1Nc1nc(Nc2cccc(F)c2C(=O)O)c2cc[nH]c2n1
Out: 1.22

----------
In this section we review reported inhibition values for a set of compounds.
# STUDY SYSTEM: Serine/threonine-protein kinase BRSK1 (Homo sapiens);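 further: each value is a mean percent inhibition of BRSK1 kinase activity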
# TEST PARAMETERS: at 1 µM
Numbers only here, please. The scale is %.

Use these answered entries as a reference point.
STRUCTURE | QUANTITY UNIT | inhibition
O=C(Nc1n[nH]c2nnc(-c3cccnc3)cc12)C1CC1 | % | -3.34
OCCCNc1nccc(-c2c(-c3ccc(F)cc3)nn3cc(C(F)(F)F)ccc23)n1 | % | 3.4
CNC(=O)c1cncc(/C=C/c2ccccc2C)c1 | % | 15
CCS(=O)(=O)c1ccc(OC)c(Nc2ncc(-c3cccc(F)c3)o2)c1 | % | -0.68
NS(=O)(=O)c1cccc(N/C=C2\C(=O)Nc3ccccc32)c1 | % | 17.9

In: Please give the measured inhibition for this compound: CN(c1ccc(NC(=O)NCCN2CCOCC2)cc1)c1ccnc(Nc2ccc(CS(C)(=O)=O)cc2)n1
Out: 4.74

In: Please give the measured inhibition for this compound: CC1(C)CC(n2cnc(-c3ccc(F)cc3)c2-c2ccnc(N)n2)CC(C)(C)N1
Out: 4.7

In: Please give the measured inhibition for this compound: COc1ccc(-c2nn3ncccc3c2-c2ccnc(Nc3ccc(F)c(F)c3)n2)cc1
Out: 7.79

In: Please give the measured inhibition for this compound: NS(=O)(=O)c1ccc(N/N=C2\C(=O)Nc3ccc(C(=O)NCc4ccncc4)cc32)cc1
Out: 39.7

In: Please give the measured inhibition for this compound: Cc1cc(O)cc(C)c1/C=C/c1cncc(C(N)=O)c1
Out: 15

In: Please give the measured inhibition for this compound: COc1cc(N2CCN(C(C)C)CC2)ccc1Nc1nc(Nc2cccc(F)c2C(=O)O)c2cc[nH]c2n1
Out: 0.33

In: Please give the measured inhibition for this compound: CS(=O)(=O)CCNCc1ccc(-c2ccc3ncnc(Nc4ccc(OCc5ccccc5)cc4)c3c2)o1
Out: 1.23
